# Read-out: Cyclin D2 (CCND2), CCND2 (gene 894)
# Assay details: LTEA_HepaRG_CCND2: Life Technologies and Expression Analysis (LTEA) Assay for Cyclin D2 (CCND2) using HepaRG (AID 2283449);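 further: CCND2 transcript measured by TaqMan qRT-PCR and normalised to three housekeeping genes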
# Run conditions: mRNA level, 48 h; actives raise or lower the signal
Activity calls are given as the source filed them. How the source made its calls: active means hit-call score of the fitted dose curve at least 0.9, where 1 is the maximum; inactive means score below 0.9.
API: response.call in 1 (yes) (active), 0 (no) (inactive)

Study these solved cases before continuing.
CON=C(C(=O)OC)c1ccccc1CON=C(C)c1cccc(C(F)(F)F)c1 : 0 (no)
CNC(=O)ON=C(C)SC : 0 (no)
S=C1NCCN1 : 0 (no)
CSc1nc(NC(C)C)nc(NC(C)C)n1 : 0 (no)
CC[C@H](C)[C@H]1O[C@]2(C=C[C@@H]1C)C[C@@H]1C[C@@H](C/C=C(\C)[C@@H](O[C@H]3C[C@H](OC)[C@@H](O[C@H]4C[C@H](OC)[C@@H](NC)[C@H](C)O4)[C@H](C)O3)[C@@H](C)/C=C/C=C3\CO[C@@H]4[C@H](O)C(C)=C[C@@H](C(=O)O1)[C@]34O)O2 : 0 (no)
CN(C)[C@@H]1C(=O)C(C(N)=O)=C(O)[C@@]2(O)C(=O)C3=C(O)c4c(O)cccc4[C@@](C)(O)[C@H]3[C@H](O)[C@@H]12 : 0 (no)

Query: Give the logged outcome of this assay for the following molecule: CCOP(=S)(OCC)SCCSCC
Response: 0 (no)

Query: Give the logged outcome of this assay for the following molecule: CCCSP(=O)(OCC)SCCC
Response: 0 (no)

* * *

# Read-out: Monokine induced gamma interferon (MIG), CXCL9 (gene 4283)
# Assay details: BSK_3C_MIG: BioMAP Diversity Plus: 3C Assay for Monokine induced gamma interferon (MIG) Biomarker Activity (AID 2283021)
# Run conditions: primary human endothelial cells (HUVEC); actives raise or lower the signal
Activity calls are given as the source filed them. Rule for the calls: active = hit-call score of the fitted dose curve at least 0.9, where 1 is the maximum; inactive = score below 0.9.
API: response.call in active, inactive

Study these solved cases before continuing.
C=C(C)[C@H]1Cc2c(ccc3c2O[C@@H]2COc4cc(OC)c(OC)cc4[C@@H]2C3=O)O1 : inactive
CN(C)[C@@H]1C(=O)C(C(N)=O)=C(O)[C@@]2(O)C(=O)C3=C(O)c4c(O)cccc4[C@@](C)(O)[C@H]3[C@H](O)[C@@H]12 : inactive
N#CSCSC#N : active
CCOP(=O)(NC(C)C)Oc1ccc(SC)c(C)c1 (stereo unspecified) : inactive

Query: Give the logged outcome of this assay for the following compound: CC1=NNC(=O)N(/N=C/c2cccnc2)C1
Response: inactive

Query: Give the logged outcome of this assay for the following compound: Cc1cc(C2CC2)nc(Nc2ccccc2)n1
Response: inactive

* * *

# Read-out: Monokine induced gamma interferon (MIG), CXCL9 (gene 4283)
# Assay details: BSK_SAg_MIG: BioMAP Diversity Plus: SAg Assay for Monokine induced gamma interferon (MIG) Biomarker Activity (AID 2283092)
# Run conditions: primary human HUVEC with PBMC; actives raise or lower the signal
The source made the active and inactive calls. Rule for the calls: active = hit-call score of the fitted dose curve at least 0.9, where 1 is the maximum; inactive = score below 0.9.
API: response.call in label 1 = active, label 0 = inactive

CCCCOC(=O)[C@@H](C)Oc1ccc(Oc2ccc(C#N)cc2F)cc1 : label 0
Cc1nn(-c2cc(NS(C)(=O)=O)c(Cl)cc2Cl)c(=O)n1C(F)F : label 0
CN(C)[C@@H]1C(=O)C(C(N)=O)=C(O)[C@@]2(O)C(=O)C3=C(O)c4c(O)cccc4[C@@](C)(O)[C@H]3[C@H](O)[C@@H]12 : label 0
O=c1ccc(=O)[nH][nH]1 : label 0
CC(C)=CC1C(C(=O)OCN2C(=O)C3=C(CCCC3)C2=O)C1(C)C (stereo not drawn) : label 1
CCOC(=O)COc1cc(-c2nn(C)c(OC(F)F)c2Cl)c(F)cc1Cl : label 0
COc1ccc(C(=CC(=O)N2CCOCC2)c2ccc(Cl)cc2)cc1OC : label 1
O=C(O)c1cc(Oc2ccc(C(F)(F)F)cc2Cl)ccc1[N+](=O)[O-] : label 0
COP(=O)(OC)SCn1c(=O)oc2cc(Cl)cnc21 : label 0
Nc1c(Cl)cc([N+](=O)[O-])cc1Cl : label 0

Query: Give the logged outcome of this assay for the following compound: CCNc1nc(Cl)nc(NC(C)(C)C#N)n1
Response: label 0

Query: Give the logged outcome of this assay for the following compound: COP(=O)(OC)C(O)C(Cl)(Cl)Cl (stereo not drawn)
Response: label 0

Query: Give the logged outcome of this assay for the following compound: CCOP(=S)(OCC)Oc1ccc([N+](=O)[O-])cc1
Response: label 0

Query: Give the logged outcome of this assay for the following compound: CCCCOC(=O)c1ccccc1C(=O)O
Response: label 0

Query: Give the logged outcome of this assay for the following compound: CC(C)[C@H](C(=O)O[C@H](C#N)c1cccc(Oc2ccccc2)c1)c1ccc(Cl)cc1
Response: label 0

Query: Give the logged outcome of this assay for the following compound: C#CCC1=C(C)C(OC(=O)C2C(C=C(C)C)C2(C)C)CC1=O (stereo not drawn)
Response: label 1

* * *

# Read-out: Vascular cell adhesion molecule 1 (VCAM1), VCAM1 (gene 7412)
# Assay details: BSK_LPS_VCAM1: BioMAP Diversity Plus: LPS Assay for Vascular cell adhesion molecule 1 (VCAM1) Biomarker Activity (AID 2283086)
# Run conditions: primary human HUVEC with PBMC; actives raise or lower the signal
# Protocol: BSK_LPS is a cell-based, multiplexed-readout assay that uses umbilical vein endothelium and peripheral blood mononuclear cells, a human vascular primary cell co-culture, with measurements taken at 24 hours after chemical dosing in a 96-well plate.BSK_LPS_VCAM1 is an assay component measured in the BSK_LPS assay. It measures VCAM-1 antibody related to regulation of gene expression using ELISA technology.Data from the assay component BSK_LPS_VCAM1 was analyzed into 1 assay endpoint. […]
Activity calls are given as the source filed them. How the source made its calls: active means hit-call score of the fitted dose curve at least 0.9, where 1 is the maximum; inactive means score below 0.9.
API: response.call in Yes (active), No (inactive)

Query: Give the logged outcome of this assay for the following compound: CNC(=O)ON=C(SC)C(=O)N(C)C
Response: Yes

Query: Give the logged outcome of this assay for the following compound: CC(=NC#N)N(C)Cc1ccc(Cl)nc1
Response: No

Query: Give the logged outcome of this assay for the following compound: CC(COc1ccc(Oc2ccccc2)cc1)Oc1ccccn1 (stereo not drawn)
Response: Yes

* * *

# Assay details: Tanguay_ZF_120hpf_CFIN_legacy: (Legacy) Oregon State University Tanguay Lab 120 Hour Post-fertilization zebrafish Assay for Caudal Fin Malformation (AID 2283649)
Inconclusive results are not listed. Active and inactive are the calls of the source. How the source made its calls: active means hit-call score of the fitted dose curve at least 0.9, where 1 is the maximum; inconclusive means response in the unintended direction; inactive means score below 0.9.
API: response.call in yes (1) for active, no (0) for inactive

Study these solved cases before continuing.
CCCCOC(=O)c1ccccc1C(=O)O : no (0)
CCCSP(=O)(OCC)Oc1ccc(Br)cc1Cl (configuration not stated) : no (0)

Query: Give the logged outcome of this assay for the following molecule: CN(C)NC(=O)CCC(=O)O
Response: no (0)

Query: Give the logged outcome of this assay for the following molecule: CCC(CC)Nc1c([N+](=O)[O-])cc(C)c(C)c1[N+](=O)[O-]
Response: no (0)

Query: Give the logged outcome of this assay for the following molecule: C[Si](Cn1cncn1)(c1ccc(F)cc1)c1ccc(F)cc1
Response: yes (1)

* * *

# Assay details: CCTE_Shafer_MEA_dev_network_spike_peak: CCTE's Neural Network Formation Assay for Mean Number of Electrodes in Network Spike, Shafer Lab (AID 2284049)
Calls of active or inactive are those of the source. Rule for the calls: active = hit-call score of the fitted dose curve at least 0.9, where 1 is the maximum; inactive = score below 0.9.
API: response.call in y for active, n for inactive

Study these solved cases before continuing.
C[N+]1(C)CCCCC1 : y
CC(=NC#N)N(C)Cc1ccc(Cl)nc1 : n
CC(C)=CC1C(C(=O)OCN2C(=O)C3=C(CCCC3)C2=O)C1(C)C (stereo unspecified) : y

Query: Give the logged outcome of this assay for the following compound: CN(C)[C@@H]1C(=O)C(C(N)=O)=C(O)[C@@]2(O)C(=O)C3=C(O)c4c(O)cccc4[C@@](C)(O)[C@H]3[C@H](O)[C@@H]12
Response: y

Query: Give the logged outcome of this assay for the following compound: CN1COCN(Cc2cnc(Cl)s2)C1=N[N+](=O)[O-]
Response: n

Query: Give the logged outcome of this assay for the following compound: COP(=O)(NC(C)=O)SC (stereo unspecified)
Response: n

* * *

# Assay details: ATG_NF_kB_CIS: Attagene CIS-FACTORIAL HepG2 Assay for human Nuclear Factor Kappa B (NF-kB) (AID 2282991)
# Run conditions: HepG2 Attagene cis-factorial NF-kB reporter mRNA; actives raise or lower the signal
Calls of active or inactive are those of the source. Rule for the calls: active = hit-call score of the fitted dose curve at least 0.9, where 1 is the maximum; inactive = score below 0.9.
API: response.call in active, inactive

Study these solved cases before continuing.
CNc1cnn(-c2cccc(C(F)(F)F)c2)c(=O)c1Cl : inactive
COP(=O)(OC)C(O)C(Cl)(Cl)Cl (stereo not given) : inactive
CSc1nnc(C(C)(C)C)c(=O)n1N : inactive
Nc1nc(N)nc(NC2CC2)n1 : inactive
CNC(=O)ON=C(SC)C(=O)N(C)C : inactive

Query: Give the logged outcome of this assay for the following molecule: FC(F)C(F)(F)OCC(Cn1cncn1)c1ccc(Cl)cc1Cl (stereo not given)
Response: inactive

Query: Give the logged outcome of this assay for the following molecule: S=C1NCCN1
Response: inactive

Query: Give the logged outcome of this assay for the following molecule: CN(C)NC(=O)CCC(=O)O
Response: inactive

Query: Give the logged outcome of this assay for the following molecule: CCCCN(CC)c1c([N+](=O)[O-])cc(C(F)(F)F)cc1[N+](=O)[O-]
Response: inactive

Query: Give the logged outcome of this assay for the following molecule: CCOP(=S)(OCC)Oc1cc(C)nc(C(C)C)n1
Response: inactive
